- Tested On: human GLP-1 receptor (human, UniProt P43220 24-463)
- Measurement Protocol: cell-based or functional assay
Bridges are numbered along the chain shown (N, C = ends). Where no end group is shown, it is not given here. [ ]: non-standard residue; d: D form. The star is where a group is joined. Acetyl(2-(4-imidazolyl)) = O=C(Cc1c[nH]cn1)*; Aib = CC(C)(N)C(=O)O
Property Label: In vitro activity compared with native peptide (%) vs. GLP-1
Answer format: numeric, % implied, no suffix.

// worked examples, In vitro activity compared with native peptide (%) vs. GLP-1 included
H[Aib]QGTFTSDYSKYLDEKRQKEFVQWLLNTC (bridge 16-20) [Triple agonist of SEQ ID NO: 51] = 14.4
{Acetyl(2-(4-imidazolyl))}-[Aib]EGTFTSDYSIAMDEIHQKDFVDWLLAEKC (bridge 15-19) [Triple agonist of SEQ ID NO: 91] = 31.9
{Acetyl(2-(4-imidazolyl))}-[Aib]QGTFTSDYSIAMDEIHQKDFVNWLLAQC (bridge 15-19) [Triple agonist of SEQ ID NO: 85] = 4.3

In the following, a different binder is considered.
**Q:** Report In vitro activity compared with native peptide (%) vs. GLP-1 for Y[Aib]QGTFTSDYSKYLDECRAKEFVQWLLDHHPSSGQPPPS (bridge 16-20) [Triple agonist of SEQ ID NO: 21]
**A:** 17.8
